# target-system: T1, MGME1 (Homo sapiens, UniProt Q9BQP7 21-344)
# T1 sequence: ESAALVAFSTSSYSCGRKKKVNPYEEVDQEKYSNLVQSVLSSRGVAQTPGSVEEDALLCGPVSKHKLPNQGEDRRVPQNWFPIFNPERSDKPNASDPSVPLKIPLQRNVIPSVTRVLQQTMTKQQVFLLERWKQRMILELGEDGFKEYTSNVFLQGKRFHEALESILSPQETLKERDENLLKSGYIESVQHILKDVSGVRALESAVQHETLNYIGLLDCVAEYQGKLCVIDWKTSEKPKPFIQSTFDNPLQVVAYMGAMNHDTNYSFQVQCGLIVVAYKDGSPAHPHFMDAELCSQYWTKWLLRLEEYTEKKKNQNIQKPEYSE
# test-protocol: competition (fluorescence polarization); 10 mM EDTA; 140 nM MGME1 with 2 nM T20(5') preformed; FP: 2 nM FAM-ssDNA, 20 mM Hepes pH 8.0 (at 37 C), 100 mM NaCl, 0.1 mg/ml BSA, 1 mM DTT, 10 mM EDTA, mixed at room temperature, 15 min; EMSA: 1 uM ssDNA, 20 mM Hepes pH 8.0, 100 mM NaCl, 1 mM DTT, 10 mM EDTA, room temperature 15 min, gel 0.35x TBE at 4 C
# run-parameters: protein: recombinant; tags: His-SUMO tag removed by Ulp1; single strand
value-kind: pKd
// pKd is dimensionless: -log10 of concentration (M)

**Query** Let me know recorded pKd for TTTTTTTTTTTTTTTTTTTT (ssDNA) [T20 (unlabeled)] , thanks.
**Result** 6.60
